Biological target: endogenous CGRP receptor (Homo sapiens, UniProt O60894+Q16602)
Sequence (Q16602 23-461): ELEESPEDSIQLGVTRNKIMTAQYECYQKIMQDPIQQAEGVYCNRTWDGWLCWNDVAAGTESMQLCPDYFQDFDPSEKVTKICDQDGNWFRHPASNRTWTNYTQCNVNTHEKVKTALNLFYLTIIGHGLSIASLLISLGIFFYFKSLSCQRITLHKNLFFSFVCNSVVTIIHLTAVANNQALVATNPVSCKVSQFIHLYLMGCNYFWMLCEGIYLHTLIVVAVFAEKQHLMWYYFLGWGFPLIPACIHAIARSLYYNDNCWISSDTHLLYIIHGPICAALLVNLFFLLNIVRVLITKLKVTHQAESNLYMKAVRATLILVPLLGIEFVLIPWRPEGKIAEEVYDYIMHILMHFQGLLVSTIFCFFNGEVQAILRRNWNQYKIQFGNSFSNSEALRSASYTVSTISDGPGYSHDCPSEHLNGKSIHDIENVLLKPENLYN
Sequence (O60894 27-148): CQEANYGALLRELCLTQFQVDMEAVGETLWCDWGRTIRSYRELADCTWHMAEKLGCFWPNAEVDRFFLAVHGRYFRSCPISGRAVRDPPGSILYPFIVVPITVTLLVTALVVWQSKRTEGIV
Test: CGRP functional antagonism using SK-N-MC-BLA (4C10), β-lactamase transcriptional reporter assay
Details: SK-N-MC (4C10) cells, inhibition of β-lactamase expression in the presence of 200 pM CGRP
Protocol: Measuring CGRP Functional Antagonism Using SK-N-MC-BLA (4C10): CGRP functional antagonism was characterized in a cell based transcriptional assay using a recombinant SK-N-MC line. […] Single clones were separated using Fluorescent Activated Cell Sorting (FACS) based on CGRP induced β-lactamase activity. β-lactamase activity was measured using a fluorescence energy transfer (FRET) dye, CCF4. […]
property measured: IC50

The recorded IC50 with endogenous CGRP receptor (Homo sapiens, UniProt O60894+Q16602) for CC(C)CCN1C(=O)C(CC(=O)N2CCC3(CC2)C(=O)Nc2ccccc23)SC1c1ccccc1 (stereo not shown) was > 5 µM

The recorded IC50 with endogenous CGRP receptor (Homo sapiens, UniProt O60894+Q16602) for CN1CCN(c2ccccc2C2SC(CC(=O)N3CCC(n4c(=O)[nH]c5ccccc54)CC3)C(=O)N2CCC(C)(C)C)CC1 (stereo not shown) was < 1 µM

The recorded IC50 with endogenous CGRP receptor (Homo sapiens, UniProt O60894+Q16602) for CC(C)CCN1C(=O)C(CC(=O)N2CCC3(CC2)OC(=O)Nc2ccccc23)SC1c1ccccc1 (stereo not shown) was > 5 µM

The recorded IC50 with endogenous CGRP receptor (Homo sapiens, UniProt O60894+Q16602) for CC(C)N1CCN(c2c(F)cccc2[C@H]2S[C@@H](CC(=O)N3CCC(N4CCc5ccccc5NC4=O)CC3)C(=O)N2CCC(C)(C)C)CC1 was 1 to 5 µM
